meta.source: patent US7238813B2

Overview of recorded IC50 for various compounds
Molecular target: GST-TIE2 (intracellular domains of human TIE2) (Homo sapiens, UniProt Q02763)
Sequence (Q02763 762-1104): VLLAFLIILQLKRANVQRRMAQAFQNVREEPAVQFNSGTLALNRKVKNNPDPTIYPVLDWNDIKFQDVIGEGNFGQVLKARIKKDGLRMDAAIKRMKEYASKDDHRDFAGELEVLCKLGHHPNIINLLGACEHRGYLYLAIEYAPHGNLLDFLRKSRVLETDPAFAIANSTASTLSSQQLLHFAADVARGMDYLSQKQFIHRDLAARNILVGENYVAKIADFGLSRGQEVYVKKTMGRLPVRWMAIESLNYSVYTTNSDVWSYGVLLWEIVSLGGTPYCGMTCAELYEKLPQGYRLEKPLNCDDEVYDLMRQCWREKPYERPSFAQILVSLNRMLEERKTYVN
Experiment: TIE-2 enzyme assay (TIE2-E), LANCE method
Details: 80 uM ATP

| Compound | Study system | IC50 |
| --- | --- | --- |
| COC(=O)Nc1nc2cc(Sc3ccc(NC(=O)Nc4cc(Cl)ccc4Cl)cc3)ccc2[nH]1 [Example 57] | GST-TIE2 (intracellular domains of human TIE2) (Homo sapiens, UniProt Q02763) | < 100 nM |
| COC(=O)Nc1nc2cc(Oc3ccc(NC(=O)Nc4cccc(C#N)c4)cc3)ccc2[nH]1 [Example 49] | GST-TIE2 (intracellular domains of human TIE2) (Homo sapiens, UniProt Q02763) | 100 to 1000 nM |
| CCc1cccc(NC(=O)Nc2cccc(Oc3ccc4[nH]c(NC(=O)OC)nc4c3)c2)c1 [Example 16] | GST-TIE2 (intracellular domains of human TIE2) (Homo sapiens, UniProt Q02763) | < 100 nM |
| O=C(Nc1ccc(Oc2ccc3[nH]c(NC(=O)c4c[nH]cn4)nc3c2)cc1)Nc1cc(C(F)(F)F)ccc1F [Example 98] | GST-TIE2 (intracellular domains of human TIE2) (Homo sapiens, UniProt Q02763) | < 100 nM |

====

Here, each record is paired with measured IC50 data.
Target: GST-TIE2 (intracellular domains of human TIE2) (Homo sapiens, UniProt Q02763)
Test: TIE-2 enzyme assay (TIE2-E), LANCE method
Settings: 80 uM ATP
Structures can show the parent of a compound that is named as a salt.

| Compound | IC50 |
| --- | --- |
| COC(=O)Nc1nc2cc(Oc3ccc(NC(=O)Nc4ccc(OC)cc4)cc3)ccc2[nH]1 | 1000 to 10000 nM |
| COC(=O)Nc1nc2cc(Oc3ccc(NC(=O)Nc4cc(C)ccc4F)cc3)ccc2[nH]1.Cl [Example 55, hydrochloride] | < 100 nM |
| COC(=O)Nc1nc2ccc(Oc3ccc(NC(=O)Nc4cc(C(F)(F)F)ccc4F)cc3)cc2n1CCN1CCOCC1 | < 100 nM |
| COC(=O)Nc1nc2ncc(Oc3ccc(NC(=O)Nc4cc(C(F)(F)F)ccc4Cl)cc3)cc2[nH]1 [Example 73, dihydrochloride] | 100 to 1000 nM |
